Assay: Multiple-ascending-dose phase 1 study: plasma and urine pharmacokinetics
Type: in vivo, humans
Conditions: human, plasma, iv, 400 mg, following the first dose; read-out: trough concentration on day 7 (144 h postdose)
Numbered stars: 1 amine (or outer) side, 2 acyl side, 3 side chain; on linkers, the order of the positions; unused ones are H or OH. Bridge positions count the residues as written; N and C are the ends. Square brackets hold non-standard residues; d marks the D form. Peptide text beside a SMILES is read from it. * marks the point of attachment. Orn(4R-OH,5R-OCH2CH2NMe3+) = C[N+](C)(C)CCO[C@@H](N[*:3])[C@H](O)C[C@H](N[*:1])C(=O)[*:2]; pTerphenylCO(4''-OnC5H11) = CCCCCOc1ccc(-c2ccc(-c3ccc(C(=O)*)cc3)cc2)cc1; hTyr(3S-OH,4S-OH) = N[C@H](C(=O)O)[C@H](O)[C@@H](O)c1ccc(O)cc1; Pro(3S-OH,4S-Me) = C[C@H]1CN[C@H](C(=O)O)[C@H]1O; Hyp = O=C(O)[C@@H]1C[C@@H](O)CN1
reported-property: level at 144 h

Record CCCCCOc1ccc(-c2ccc(-c3ccc(C(=O)N[C@H]4C[C@@H](O)[C@@H](OCC[N+](C)(C)C)NC(=O)[C@@H]5[C@@H](O)[C@@H](C)CN5C(=O)[C@H]([C@@H](C)O)NC(=O)[C@H]([C@H](O)[C@@H](O)c5ccc(O)cc5)NC(=O)[C@@H]5C[C@@H](O)CN5C(=O)[C@H]([C@@H](C)O)NC4=O)cc3)cc2)cc1 [CD101] ({pTerphenylCO(4''-OnC5H11)}-[Orn(4R-OH,5R-OCH2CH2NMe3+)]T[Hyp][hTyr(3S-OH,4S-OH)]T[Pro(3S-OH,4S-Me)]; lactam 1-C) . Reported level at 144 h: ~4000 ng/mL

###

Test: Multiple-ascending-dose phase 1 study: plasma and urine pharmacokinetics
Format: in vivo, humans
Conditions: human, plasma, iv, 200 mg, 200 mg IV once weekly x2, day 8, sampling interval 480 h, arithmetic mean
Numbered stars: 1 amine (or outer) side, 2 acyl side, 3 side chain; on linkers, the order of the positions; unused ones are H or OH. Bridge positions count the residues as written; N and C are the ends. Square brackets hold non-standard residues; d marks the D form. Peptide text beside a SMILES is read from it. * marks the point of attachment. Orn(4R-OH,5R-OCH2CH2NMe3+) = C[N+](C)(C)CCO[C@@H](N[*:3])[C@H](O)C[C@H](N[*:1])C(=O)[*:2]; pTerphenylCO(4''-OnC5H11) = CCCCCOc1ccc(-c2ccc(-c3ccc(C(=O)*)cc3)cc2)cc1; hTyr(3S-OH,4S-OH) = N[C@H](C(=O)O)[C@H](O)[C@@H](O)c1ccc(O)cc1; Pro(3S-OH,4S-Me) = C[C@H]1CN[C@H](C(=O)O)[C@H]1O; Hyp = O=C(O)[C@@H]1C[C@@H](O)CN1
reported-property: half-life (h)
Your answer is read as h, so omit the unit and give the number.

Record CCCCCOc1ccc(-c2ccc(-c3ccc(C(=O)N[C@H]4C[C@@H](O)[C@@H](OCC[N+](C)(C)C)NC(=O)[C@@H]5[C@@H](O)[C@@H](C)CN5C(=O)[C@H]([C@@H](C)O)NC(=O)[C@H]([C@H](O)[C@@H](O)c5ccc(O)cc5)NC(=O)[C@@H]5C[C@@H](O)CN5C(=O)[C@H]([C@@H](C)O)NC4=O)cc3)cc2)cc1 [CD101] ({pTerphenylCO(4''-OnC5H11)}-[Orn(4R-OH,5R-OCH2CH2NMe3+)]T[Hyp][hTyr(3S-OH,4S-OH)]T[Pro(3S-OH,4S-Me)]; lactam 1-C) . Reported half-life: 140

###

Test: Multiple-ascending-dose phase 1 study: plasma and urine pharmacokinetics
Assay type: in vivo, humans
Details: human, plasma, iv, 200 mg, 200 mg IV once weekly x2, day 8, sampling interval 480 h, arithmetic mean
Numbered stars: 1 amine (or outer) side, 2 acyl side, 3 side chain; on linkers, the order of the positions; unused ones are H or OH. Bridge positions count the residues as written; N and C are the ends. Square brackets hold non-standard residues; d marks the D form. Peptide text beside a SMILES is read from it. * marks the point of attachment. Orn(4R-OH,5R-OCH2CH2NMe3+) = C[N+](C)(C)CCO[C@@H](N[*:3])[C@H](O)C[C@H](N[*:1])C(=O)[*:2]; pTerphenylCO(4''-OnC5H11) = CCCCCOc1ccc(-c2ccc(-c3ccc(C(=O)*)cc3)cc2)cc1; hTyr(3S-OH,4S-OH) = N[C@H](C(=O)O)[C@H](O)[C@@H](O)c1ccc(O)cc1; Pro(3S-OH,4S-Me) = C[C@H]1CN[C@H](C(=O)O)[C@H]1O; Hyp = O=C(O)[C@@H]1C[C@@H](O)CN1
reported-property: clearance
Please state the value followed by its unit.

Record CCCCCOc1ccc(-c2ccc(-c3ccc(C(=O)N[C@H]4C[C@@H](O)[C@@H](OCC[N+](C)(C)C)NC(=O)[C@@H]5[C@@H](O)[C@@H](C)CN5C(=O)[C@H]([C@@H](C)O)NC(=O)[C@H]([C@H](O)[C@@H](O)c5ccc(O)cc5)NC(=O)[C@@H]5C[C@@H](O)CN5C(=O)[C@H]([C@@H](C)O)NC4=O)cc3)cc2)cc1 [CD101] ({pTerphenylCO(4''-OnC5H11)}-[Orn(4R-OH,5R-OCH2CH2NMe3+)]T[Hyp][hTyr(3S-OH,4S-OH)]T[Pro(3S-OH,4S-Me)]; lactam 1-C) . Reported clearance: 2.58 mL/min

###

Experiment: Multiple-ascending-dose phase 1 study: plasma and urine pharmacokinetics
Assay type: in vivo, humans
Details: human, plasma, iv, 200 mg, 200 mg IV once weekly x2, day 1, arithmetic mean; read-out: Vss
Numbered stars: 1 amine (or outer) side, 2 acyl side, 3 side chain; on linkers, the order of the positions; unused ones are H or OH. Bridge positions count the residues as written; N and C are the ends. Square brackets hold non-standard residues; d marks the D form. Peptide text beside a SMILES is read from it. * marks the point of attachment. Orn(4R-OH,5R-OCH2CH2NMe3+) = C[N+](C)(C)CCO[C@@H](N[*:3])[C@H](O)C[C@H](N[*:1])C(=O)[*:2]; pTerphenylCO(4''-OnC5H11) = CCCCCOc1ccc(-c2ccc(-c3ccc(C(=O)*)cc3)cc2)cc1; hTyr(3S-OH,4S-OH) = N[C@H](C(=O)O)[C@H](O)[C@@H](O)c1ccc(O)cc1; Pro(3S-OH,4S-Me) = C[C@H]1CN[C@H](C(=O)O)[C@H]1O; Hyp = O=C(O)[C@@H]1C[C@@H](O)CN1
reported-property: Vd (L)
Your answer is read as L, so omit the unit and give the number.

Record CCCCCOc1ccc(-c2ccc(-c3ccc(C(=O)N[C@H]4C[C@@H](O)[C@@H](OCC[N+](C)(C)C)NC(=O)[C@@H]5[C@@H](O)[C@@H](C)CN5C(=O)[C@H]([C@@H](C)O)NC(=O)[C@H]([C@H](O)[C@@H](O)c5ccc(O)cc5)NC(=O)[C@@H]5C[C@@H](O)CN5C(=O)[C@H]([C@@H](C)O)NC4=O)cc3)cc2)cc1 [CD101] ({pTerphenylCO(4''-OnC5H11)}-[Orn(4R-OH,5R-OCH2CH2NMe3+)]T[Hyp][hTyr(3S-OH,4S-OH)]T[Pro(3S-OH,4S-Me)]; lactam 1-C) . Reported Vd: 31.7

###

Assay: Single-ascending-dose phase 1 study: plasma and urine pharmacokinetics
Type: in vivo, humans
Settings: human, plasma, iv, 200 mg, single 200 mg IV infusion over 1 h, plasma, arithmetic mean; read-out: Vss (volume of distribution at steady state)
Numbered stars: 1 amine (or outer) side, 2 acyl side, 3 side chain; on linkers, the order of the positions; unused ones are H or OH. Bridge positions count the residues as written; N and C are the ends. Square brackets hold non-standard residues; d marks the D form. Peptide text beside a SMILES is read from it. * marks the point of attachment. Orn(4R-OH,5R-OCH2CH2NMe3+) = C[N+](C)(C)CCO[C@@H](N[*:3])[C@H](O)C[C@H](N[*:1])C(=O)[*:2]; pTerphenylCO(4''-OnC5H11) = CCCCCOc1ccc(-c2ccc(-c3ccc(C(=O)*)cc3)cc2)cc1; hTyr(3S-OH,4S-OH) = N[C@H](C(=O)O)[C@H](O)[C@@H](O)c1ccc(O)cc1; Pro(3S-OH,4S-Me) = C[C@H]1CN[C@H](C(=O)O)[C@H]1O; Hyp = O=C(O)[C@@H]1C[C@@H](O)CN1
reported-property: Vd (L)
Your answer is read as L, so omit the unit and give the number.

Record CCCCCOc1ccc(-c2ccc(-c3ccc(C(=O)N[C@H]4C[C@@H](O)[C@@H](OCC[N+](C)(C)C)NC(=O)[C@@H]5[C@@H](O)[C@@H](C)CN5C(=O)[C@H]([C@@H](C)O)NC(=O)[C@H]([C@H](O)[C@@H](O)c5ccc(O)cc5)NC(=O)[C@@H]5C[C@@H](O)CN5C(=O)[C@H]([C@@H](C)O)NC4=O)cc3)cc2)cc1 [CD101] ({pTerphenylCO(4''-OnC5H11)}-[Orn(4R-OH,5R-OCH2CH2NMe3+)]T[Hyp][hTyr(3S-OH,4S-OH)]T[Pro(3S-OH,4S-Me)]; lactam 1-C) . Reported Vd: 34.4

The measurements presented in this section are drawn from paper PMC5278714.
